compounds and their reported melting point

CCS(=O)(=O)c1cc(C(=O)NC2(C#N)CC2)cnc1-c1nnc(-c2cc(C(F)(F)F)ccn2)n1C [A23] ... 211 to 213 °C
CCS(=O)(=O)c1cc(C(=O)N(C)C2CC2)cnc1-c1nnc(-c2cc(C(F)(F)F)ccn2)n1C [A16] ... 235 to 237 °C
CCS(=O)(=O)c1cc(N(C(=O)C2CC2)S(C)(=O)=O)cnc1-c1nnc(-c2cc(C(F)(F)F)ccn2)n1C [A20] ... 229 to 231 °C

Alright, here's another compound for you.
Would you kindly share the measured melting point for CCS(=O)(=O)c1cc(NS(C)(=O)=O)cnc1-c1nnc(-c2cc(C(F)(F)F)ccn2)n1C [A14] ?
228 to 230 °C
